# System: 5'-AMP-activated protein kinase subunit beta-2 (Homo sapiens, UniProt O43741)
# Sequence (O43741 whole entry): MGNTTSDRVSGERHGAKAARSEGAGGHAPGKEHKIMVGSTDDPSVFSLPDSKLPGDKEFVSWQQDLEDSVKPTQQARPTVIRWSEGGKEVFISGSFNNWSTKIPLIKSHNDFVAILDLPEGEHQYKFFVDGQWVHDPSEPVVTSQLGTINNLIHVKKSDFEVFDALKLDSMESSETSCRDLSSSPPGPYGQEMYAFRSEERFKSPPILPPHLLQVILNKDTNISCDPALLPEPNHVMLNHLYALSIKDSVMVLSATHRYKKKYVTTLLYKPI
# Assay Name: Activation of recombinant AMPK-beta2 (unknown origin) assessed as increase in AMPK phosphorylation by DELFIA fluorescence assay
pEC50: −log10 of the molar value.
Readout Type: pEC50

[[record]]
compound = "O=C1NC2SC(Cl)=C(c3ccc4c(c3O)CCCC4)C2C(O)=C1c1ccccc1 (stereo unspecified)"
readout_type = "pEC50"
recorded_measurement = 5.89


----------
# Assay Name: Protein binding in serum (unknown origin) assessed as unbound fraction by equilibrium dialysis assay
# Format: ADME, cell-free
Consider the following molecules and their measured fraction unbound readings.
Readout Type: fraction unbound

[[record]]
structure = "O=C(c1ccc(-c2ccc(-c3nc4cc(O[C@@H]5CO[C@H]6[C@@H]5OC[C@H]6O)[nH]c4cc3F)cc2)cc1)N1CCCC1"
readout_type = "fraction unbound"
recorded_measurement = 0.01

[[record]]
structure = "CS(C)(=O)=Nc1ccc(-c2ccc(-c3nc4cc(O[C@@H]5CO[C@H](CO)C5)[nH]c4cc3F)cc2)cc1"
readout_type = "fraction unbound"
recorded_measurement = 0.011

[[record]]
structure = "CS(C)(=O)=Nc1ccc(-c2ccc(-c3nc4cc(O[C@@H]5CO[C@H]6[C@@H]5OC[C@H]6O)[nH]c4cc3F)cc2)cc1"
readout_type = "fraction unbound"
recorded_measurement = 0.016

[[record]]
structure = "CS(C)(=O)=Nc1ccc(-c2ccc(-c3nc4cc(O[C@@H]5CO[C@H]6[C@@H]5OC[C@H]6O)[nH]c4cc3F)cc2)nc1"
readout_type = "fraction unbound"
recorded_measurement = 0.072

[[record]]
structure = "O=S1(=Nc2ccc(-c3ccc(-c4nc5cc(O[C@@H]6CO[C@H]7[C@@H]6OC[C@H]7O)[nH]c5cc4F)cc3)cc2)CCCC1"
readout_type = "fraction unbound"
recorded_measurement = 0.01

[[record]]
structure = "COCCOc1ccc(-c2ccc(-c3nc4cc(O[C@@H]5CO[C@H]6[C@@H]5OC[C@H]6O)[nH]c4cc3F)cc2)cc1"
readout_type = "fraction unbound"
recorded_measurement = 0.002


----------
# Assay Name: AUC in rat at 1 mg/kg, po
# Type: ADME, organism-based
# Parameters: dose 1 mg/kg, route po
# Experimental Context: in vivo
Consider the following compounds and their measured AUC readings.
Readout Type: AUC (ng·h/mL)

[[record]]
structure = "O=S1(=Nc2ccc(-c3ccc(-c4nc5cc(O[C@@H]6CO[C@H]7[C@@H]6OC[C@H]7O)[nH]c5cc4F)cc3)cc2)CCCC1"
readout_type = "AUC"
result_unit = "ng·h/mL"
recorded_measurement = 251

[[record]]
structure = "CS(C)(=O)=Nc1ccc(-c2ccc(-c3nc4cc(O[C@@H]5CO[C@H]6[C@@H]5OC[C@H]6O)[nH]c4cc3F)cc2)cc1"
readout_type = "AUC"
result_unit = "ng·h/mL"
recorded_measurement = 288

[[record]]
structure = "CS(C)(=O)=Nc1ccc(-c2ccc(-c3nc4cc(O[C@@H]5CO[C@H]6[C@@H]5OC[C@H]6O)[nH]c4cc3F)cc2)nc1"
readout_type = "AUC"
result_unit = "ng·h/mL"
recorded_measurement = 111

[[record]]
structure = "CS(C)(=O)=Nc1ccc(-c2ccc(-c3nc4cc(O[C@@H]5CO[C@H](CO)C5)[nH]c4cc3F)cc2)cc1"
readout_type = "AUC"
result_unit = "ng·h/mL"
recorded_measurement = 810

